target: Voltage-dependent L-type calcium channel subunit alpha-1D (Rattus norvegicus); test: Inhibition of [3H]nitrendipine binding to L-type [Ca2+] channel in rat cortex homogenate, activity expressed as pIC50
Sequence (P27732 whole entry): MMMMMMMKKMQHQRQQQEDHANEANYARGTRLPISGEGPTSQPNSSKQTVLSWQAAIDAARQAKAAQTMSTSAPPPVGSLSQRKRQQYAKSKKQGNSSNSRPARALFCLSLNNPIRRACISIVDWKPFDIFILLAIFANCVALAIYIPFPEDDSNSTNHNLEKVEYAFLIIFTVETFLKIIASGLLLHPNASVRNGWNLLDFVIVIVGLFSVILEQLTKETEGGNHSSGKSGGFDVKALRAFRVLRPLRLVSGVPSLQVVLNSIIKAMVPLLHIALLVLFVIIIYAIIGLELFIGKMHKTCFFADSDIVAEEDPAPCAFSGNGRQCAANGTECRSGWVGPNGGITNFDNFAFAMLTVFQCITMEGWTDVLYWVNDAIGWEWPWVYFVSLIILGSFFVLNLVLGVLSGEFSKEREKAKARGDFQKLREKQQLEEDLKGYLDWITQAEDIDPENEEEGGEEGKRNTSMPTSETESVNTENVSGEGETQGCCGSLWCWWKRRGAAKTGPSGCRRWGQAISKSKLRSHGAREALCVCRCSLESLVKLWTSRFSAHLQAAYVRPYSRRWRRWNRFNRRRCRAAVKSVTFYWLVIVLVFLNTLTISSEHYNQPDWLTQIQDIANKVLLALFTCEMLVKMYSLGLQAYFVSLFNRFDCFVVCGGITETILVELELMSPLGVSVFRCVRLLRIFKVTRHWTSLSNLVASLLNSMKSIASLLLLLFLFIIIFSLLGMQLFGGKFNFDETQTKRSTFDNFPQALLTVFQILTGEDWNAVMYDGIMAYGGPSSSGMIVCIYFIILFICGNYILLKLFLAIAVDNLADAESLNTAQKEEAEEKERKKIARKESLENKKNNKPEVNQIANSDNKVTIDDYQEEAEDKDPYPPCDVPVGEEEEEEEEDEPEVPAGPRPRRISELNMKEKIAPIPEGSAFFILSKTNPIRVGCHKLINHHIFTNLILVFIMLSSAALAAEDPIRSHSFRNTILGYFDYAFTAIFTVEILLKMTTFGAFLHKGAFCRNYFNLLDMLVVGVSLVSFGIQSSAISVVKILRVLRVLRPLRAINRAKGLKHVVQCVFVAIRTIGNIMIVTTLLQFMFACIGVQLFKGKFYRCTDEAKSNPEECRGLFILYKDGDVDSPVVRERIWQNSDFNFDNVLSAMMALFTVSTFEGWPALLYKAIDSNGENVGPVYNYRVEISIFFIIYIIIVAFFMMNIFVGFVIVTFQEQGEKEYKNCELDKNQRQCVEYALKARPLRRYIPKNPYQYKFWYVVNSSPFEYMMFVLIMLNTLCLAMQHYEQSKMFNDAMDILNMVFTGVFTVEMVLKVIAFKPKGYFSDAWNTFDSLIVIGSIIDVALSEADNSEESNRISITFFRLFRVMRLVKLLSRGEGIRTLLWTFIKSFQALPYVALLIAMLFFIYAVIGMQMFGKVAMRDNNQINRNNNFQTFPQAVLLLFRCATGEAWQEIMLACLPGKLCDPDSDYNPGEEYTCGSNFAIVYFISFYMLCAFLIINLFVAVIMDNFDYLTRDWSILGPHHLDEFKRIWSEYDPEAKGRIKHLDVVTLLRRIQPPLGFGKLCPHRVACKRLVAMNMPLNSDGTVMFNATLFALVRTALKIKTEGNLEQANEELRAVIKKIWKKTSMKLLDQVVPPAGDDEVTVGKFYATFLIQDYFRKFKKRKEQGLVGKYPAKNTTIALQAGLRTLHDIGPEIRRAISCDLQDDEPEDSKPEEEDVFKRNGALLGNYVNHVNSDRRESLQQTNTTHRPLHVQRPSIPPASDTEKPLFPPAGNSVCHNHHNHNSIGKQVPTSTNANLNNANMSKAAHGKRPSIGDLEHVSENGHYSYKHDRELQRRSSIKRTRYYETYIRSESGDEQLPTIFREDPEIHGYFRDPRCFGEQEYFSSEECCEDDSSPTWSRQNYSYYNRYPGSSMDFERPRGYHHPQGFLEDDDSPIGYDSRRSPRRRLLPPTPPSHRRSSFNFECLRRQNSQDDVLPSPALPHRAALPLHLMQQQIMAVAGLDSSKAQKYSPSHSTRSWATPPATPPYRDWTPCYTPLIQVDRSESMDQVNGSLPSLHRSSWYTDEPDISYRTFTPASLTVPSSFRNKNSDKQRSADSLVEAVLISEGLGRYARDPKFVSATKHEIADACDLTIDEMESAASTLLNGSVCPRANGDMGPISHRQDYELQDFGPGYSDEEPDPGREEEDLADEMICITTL
metric: pIC50
Quick note: pIC50 means taking -log10 of the concentration in moles per liter.

(Q) Enter pIC50 (test system Voltage-dependent L-type calcium channel subunit alpha-1D (Rattus norvegicus)) for COc1ccc(C2Sc3ccccc3-n3c(CN(C)CCc4ccc(OC)c(OC)c4)ccc32)cc1 (stereo not given)
(A) 7.28

(Q) Give pIC50; test system Voltage-dependent L-type calcium channel subunit alpha-1D (Rattus norvegicus); molecule COc1ccc(C2Sc3ccccc3-n3c(CN(C)C)ccc32)c(OC)c1 (stereo not given)
(A) 6.82

(Q) Find the measured pIC50 of COc1ccc(CCN(C)Cc2ccc3n2-c2ccccc2SC3c2ccccc2)cc1OC (stereo not given) with Voltage-dependent L-type calcium channel subunit alpha-1D (Rattus norvegicus) as test system.
(A) 6.70

(Q) System Voltage-dependent L-type calcium channel subunit alpha-1D (Rattus norvegicus). Read-out pIC50. Item CCC(C)NCc1ccc2n1-c1ccccc1SC2c1ccc(OC)cc1OC (stereo not given) . Report value.
(A) 7.82

(Q) With Voltage-dependent L-type calcium channel subunit alpha-1D (Rattus norvegicus) as the test system, provide measured pIC50 for this molecule: COc1ccc(C2Sc3ccccc3-n3c(CN(C)CCc4ccc(OC)c(OC)c4)ccc32)c(OC)c1 (stereo not given)
(A) 5.80

(Q) Find pIC50 for O=C1CC[C@H]2[C@H](c3ccccc3)Sc3ccccc3N12 on Voltage-dependent L-type calcium channel subunit alpha-1D (Rattus norvegicus) and write it down.
(A) 9.11

(Q) Specify pIC50 for COc1ccc(C2Sc3ccccc3-n3c(CN4CCOCC4)ccc32)cc1 (stereo not given) , system Voltage-dependent L-type calcium channel subunit alpha-1D (Rattus norvegicus).
(A) 5.30

(Q) Look up Voltage-dependent L-type calcium channel subunit alpha-1D (Rattus norvegicus) data: pIC50 of COc1ccc(CCNCc2ccc3n2-c2ccccc2SC3C2=CCC(OC)(OC)C=C2)cc1OC (stereo not given) , then report it.
(A) 6.40

(Q) Retrieve pIC50 on Voltage-dependent L-type calcium channel subunit alpha-1D (Rattus norvegicus); query CC(=O)O[C@H]1c2ccc(CN(C)C)n2-c2cc(Cl)ccc2S[C@H]1c1ccccc1
(A) 5.91

(Q) GET pIC50 | system: Voltage-dependent L-type calcium channel subunit alpha-1D (Rattus norvegicus) | item: CN(C)Cc1ccc2n1-c1cccc(Cl)c1SC2(c1ccccc1)c1ccccc1
(A) 7.09
